Documented melting point across a set of compounds
value.type: melting point

[[record]]
compound = "O=C(NC1CC=CCC1)NS(=O)(=O)c1ccc2c(c1)CCN(C(=O)N1CCCC1)CC2 (stereo not drawn)"
value_type = "melting point"
recorded_value = "211 to 212 °C"

[[record]]
compound = "COc1nc(N2CCOCC2)c(Cl)nc1NS(=O)(=O)c1cccc(Cl)c1Cl"
value_type = "melting point"
recorded_value = "150 to 151 °C"

[[record]]
compound = "Cn1c(=O)cc(CCc2cccc(Cl)c2)c2cc(C(O)(c3ccc(Cl)cc3)c3cccnc3)ccc21 (stereo not drawn)"
value_type = "melting point"
recorded_value = "115 °C"

[[record]]
compound = "CN1CCCC(c2ccccc2)c2[nH]c3ccccc3c2CC1 (stereo not drawn)"
value_type = "melting point"
recorded_value = "117 to 119 °C"

[[record]]
compound = "CCCCNC(=O)Oc1ccc2c(c1)c(C)cn2NCCCc1ccncc1F"
value_type = "melting point"
recorded_value = "83 to 84 °C"

[[record]]
compound = "Cc1c(C(F)F)cc(-c2ccc(S(C)(=O)=O)cc2)n1-c1ccc(F)cc1"
value_type = "melting point"
recorded_value = "136 to 138 °C"

[[record]]
compound = "CCOC(=O)c1cn(-c2nncs2)c2cc(F)c(F)cc2c1=O"
value_type = "melting point"
recorded_value = "235 to 238 °C"

[[record]]
compound = "NCc1cc(-c2ccc(Cl)cc2)no1"
value_type = "melting point"
recorded_value = "81 °C"

[[record]]
compound = "CNC(=O)c1cccc(I)c1"
value_type = "melting point"
recorded_value = "94 to 97 °C"

[[record]]
compound = "CCCCCCc1c(Cl)nc(N=CN(C)C)nc1Cl"
value_type = "melting point"
recorded_value = "59 to 60 °C"

[[record]]
compound = "O=C(O)CC(=O)NCc1cc(Br)cc2[nH]c(=O)c(=O)[nH]c12"
value_type = "melting point"
recorded_value = "> 300 °C"

[[record]]
compound = "CCNc1ccc(C(=O)Nc2ccc3ccc(OC)nc3n2)cc1"
value_type = "melting point"
recorded_value = "134 °C"

[[record]]
compound = "CCCc1nn(C)c2c(=O)[nH]c(-c3cc(C(=O)CN4CCCCC4)ccc3OCC)nc12"
value_type = "melting point"
recorded_value = "149 to 151 °C"


###

Documented melting point across a set of compounds
value.type: melting point

[[record]]
compound = "O=C(Nc1cccc(C(F)(F)F)c1)c1coc2cc(Oc3cc(CO)ncn3)ccc12"
recorded_value = "181 to 182 °C"

[[record]]
compound = "CCCn1c(-n2nc(-c3c(-c4ccccc4)nn4ccccc34)ccc2=O)cc(=O)n(CC(=O)OC)c1=O"
recorded_value = "191 to 195 °C"

[[record]]
compound = "O=Cc1cc2ccccc2c(-c2ccc(I)cc2)n1"
recorded_value = "243 to 245 °C"

[[record]]
compound = "O=C1Nc2ccc(F)cc2C(C#CC2CC2)(C(F)(F)F)N1 (racemic)"
recorded_value = "155 °C"

[[record]]
compound = "O=c1ccn(-c2ccncc2)nc1-c1ccnn1-c1ccccc1"
recorded_value = "202 to 203 °C"

[[record]]
compound = "Cc1ccc(-c2cc(-c3ccc(Cl)cc3)n[nH]2)cc1"
recorded_value = "228 °C"

[[record]]
compound = "CCC(C)(N=NC(C)(CC)NC(=O)NNC(C)(C)C)NC(=O)NNC(C)(C)C (stereo not drawn)"
recorded_value = "155 to 160 °C"

[[record]]
compound = "CCCCCCc1ccc(-n2c(-c3ccc(C)cc3)cc(Br)c2-c2ccc(C)cc2)cc1"
recorded_value = "134 to 135 °C"

[[record]]
compound = "C[C@@H](c1ccc(-c2cc(=O)n(C)cc2F)cc1)N1CC[C@](CC(C)(C)O)(c2ccccc2)OC1=O"
recorded_value = "183 to 184 °C"

[[record]]
compound = "O[C@H]1CCCN[C@H]1c1ccccc1 (relative stereo)"
recorded_value = "93 to 95 °C"

[[record]]
compound = "Cc1c(C)c2c(c(C)c1NC(=O)CC(C)(C)C)C(c1ccc(C(C)(C)O)cc1)CO2 (stereo not drawn)"
recorded_value = "132 to 134 °C"

[[record]]
compound = "CC(Nc1ccc(Cc2ccccc2)cc1)C(=O)O (stereo not drawn)"
recorded_value = "119 °C"

[[record]]
compound = "CCOCc1nc2c(N)nc3cc(OCc4ccccc4OC)ccc3c2n1CC(C)C"
recorded_value = "206 to 207 °C"


###

Documented melting point across a set of compounds
value.type: melting point

[[record]]
compound = "C=CC12CCc3cc(O)ccc3C1CCC1(C)C(O)CCC12 (stereo not given)"
recorded_value = "149 to 151 °C"

[[record]]
compound = "COC(=O)C(Cl)=Cc1cc([N+](=O)[O-])ccc1Cl"
recorded_value = "108 to 110 °C"

[[record]]
compound = "Nc1ccccc1-c1nc(CCS(=O)(=O)CCO)no1"
recorded_value = "118 to 119 °C"

[[record]]
compound = "COc1ccc(-c2nc3cccc(C(=O)NC4CN5CCC4CC5)c3o2)cc1 (stereo not given)"
recorded_value = "166 to 167 °C"

[[record]]
compound = "COC(=O)C(Oc1nc(OC)cc(OC)n1)C(OC)(c1ccccc1)c1ccccc1 (stereo not given)"
recorded_value = "81 °C"

[[record]]
compound = "COc1ccc(NC(=O)c2cc(N)ccc2NC(=O)c2ccc(C(C)(C)C)cc2)cc1"
recorded_value = "212 to 214 °C"

[[record]]
compound = "O=C1CCc2ccc(OCCCCN3CCCN(c4cccc(Cl)c4Cl)CC3)nc2N1"
recorded_value = "110 to 111 °C"

[[record]]
compound = "Cc1nc(-n2cnn(Cc3ccc(F)cc3)c2=O)sc1C(N)=O"
recorded_value = "232 to 233 °C"

[[record]]
compound = "O=C(O)Cc1cc(Br)ccc1OCc1ccccc1"
recorded_value = "87 to 88.5 °C"

[[record]]
compound = "CS(=O)(=O)O[C@@H]1C[C@@H](C(N)=O)N(C(=O)OCc2ccc([N+](=O)[O-])cc2)C1"
recorded_value = "150 to 151 °C"

[[record]]
compound = "CCN(CC)CCOC(=N)N1CCC(c2nsc3ccccc23)CC1"
recorded_value = "84 to 86 °C"

[[record]]
compound = "CCNC(=O)[C@@H]1CCCN1C(=O)[C@H](C)NC(=O)C1CCCCC1"
recorded_value = "190 to 192 °C"

[[record]]
compound = "Cc1ccccc1N1CCc2c(C)nc3c(C)cccc3c21"
recorded_value = "126 to 128 °C"

[[record]]
compound = "Cc1c(C(=O)O)ccc2c1[nH]c1ccccc12"
recorded_value = "> 240 °C"

[[record]]
compound = "Cn1c(C(=O)O)c(-c2ccc(F)cc2)c2ccn(C)c2c1=O"
recorded_value = "155 to 157 °C"

[[record]]
compound = "CN(C)c1ccc(-c2cc(-c3ccccc3)nc(-c3ccccc3)c2)cc1"
recorded_value = "128 to 129 °C"

[[record]]
compound = "CCCCc1noc(-c2sccc2N)n1"
recorded_value = "69 to 70 °C"

[[record]]
compound = "CCOC(=O)c1cc2c(C)c(C(=O)OCC)sc2[nH]1"
recorded_value = "139 °C"

[[record]]
compound = "Cc1nccn1-c1nc(-c2ccc(Cl)cc2)c(CCCO)o1"
recorded_value = "128 to 129 °C"

[[record]]
compound = "CCCCCCCCC#CCCCCCCCCCCCC(=O)O"
recorded_value = "58 °C"

[[record]]
compound = "COc1cc2c(=O)n(CCN3CCCC3)c3c4cc5c(cc4nnc3c2cc1OC)OCO5"
recorded_value = "229 °C"

[[record]]
compound = "COC[C@H]1CN(c2ccc(CCCC(=O)C3CCCCC3)cc2)C(=O)O1"
recorded_value = "86 °C"

[[record]]
compound = "CN1CCN(c2ccc(S(=O)(=O)c3ccc(F)cc3)c(N)c2)CC1"
recorded_value = "85 to 89 °C"

[[record]]
compound = "N=C(N)c1ccc2c(c1)N(CC(=O)c1ccccc1-c1ccccc1)C(=O)CN2"
recorded_value = "148 to 150 °C"

[[record]]
compound = "O=C(NCc1ccccc1)Nc1nnc(-c2ccc(CN3CCCCCC3)s2)o1"
recorded_value = "184 to 185 °C"

[[record]]
compound = "C=C1CCCc2ccc(OCc3ccc4ccccc4n3)cc21"
recorded_value = "56 to 58 °C"

[[record]]
compound = "CC(=O)NNCc1c[nH]c(=S)n1[C@H]1CCc2c(F)cc(F)cc2C1"
recorded_value = "144 to 153 °C"

[[record]]
compound = "O=C1CCC(C2CCCCC2)CC1C(=S)Nc1ccccc1 (stereo not given)"
recorded_value = "150 °C"

[[record]]
compound = "O=C(OCCl)c1c(Cl)cccc1Cl"
recorded_value = "70 to 72 °C"

[[record]]
compound = "C[C@@H](n1cnc2c(cnn2-c2ccc(Cl)cc2)c1=O)[C@](O)(Cn1cncn1)c1ccc(F)cc1F"
recorded_value = "237 to 238 °C"

